Provenance of the data: patent US20230399403A1

- TESTED_SYSTEM: T1, Recombinant human PD-1 human-FC Chimera (R&D Systems) (human, UniProt Q15116 25-170)
- T1 construct: Bought construct; also called recombinant human-PD-1 extracellular domain; hPD-1 (ELISA); not shown: human Fc part of the bought chimera
- T1 sequence (Q15116 25-170, change not shown): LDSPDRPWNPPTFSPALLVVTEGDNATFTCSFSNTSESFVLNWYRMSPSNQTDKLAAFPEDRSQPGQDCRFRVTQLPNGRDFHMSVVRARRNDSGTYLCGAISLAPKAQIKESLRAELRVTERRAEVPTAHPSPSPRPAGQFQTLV
- TEST_NAME: ELISA, coated recombinant human PD-1 human-Fc chimera
Entries and their measured EC50 follow.
The reply should contain only the number, in ng/mL.

BINDER	QUANTITY	READOUT_VALUE
MAB-19-0208 (antibody, human IgG1, V domains shown, Chimeric rabbit/human antibody, human IgG1 constant parts with L234A and L235A (LALA); also called chimeric anti-PD-1 MAB-19-0208) VH: QSVEESGGRLVTPGTPLTLTCTVSGFSLSRYYISWVRQAPGKGLEWIGSFYADSGTTWYATWVKGRFTFSTASSTTVDLKMTSPTTEDTATYFCARNSGDAQFNIWGPGTLVTVSS VL: AAVLTQTPSPVSAAVGGTVSISCQSSESVYNKNQLCWYQQKPGQRPKLLIYDASTLASGVPSRFSGSGSGTQFTLTISDVQSDAAATYYCAGGYSVTSDTTFGGGTEVVVR	EC50	4

Form field: reported EC50 of MAB-19-0202 (antibody, V domains shown, Chimeric rabbit/human antibody: rabbit variable regions cloned N-terminal of human IgG1 / kappa constant parts with L234A and L235A (LALA)) VH: QSVEESGGRLVTPGTPLTLTCTVSGFSLYSYNMGWVRQAPGKGLEYIGIISGGTIGHYASWAKGRFTISKTSSTTVDLKMTSLTTEDTATYFCARAFYDDYDYNVWGPGTLVTVSS VL: AAVLTQTPSPVSAAVGGTVTISCQSSQSVYGNNQLSWYQQKPGQPPKLLIYQASKLETGVPSRFKGSGSGTQFTLTISDLESDDAATYYCAGGYSSSSDTTFGGGTEVVVK
3.5

Name the recorded EC50 for MAB-19-0217 (antibody, human IgG1, V domains shown, Chimeric rabbit/human antibody, human IgG1 constant parts with L234A and L235A (LALA); also called chimeric anti-PD-1 MAB-19-0217) VH: QSVEESGGRLVTPGTPLTLTCTVSGFSLSRYYMTWVRQAPGKGLEWIGIIYPDTGTTWYASWVKGRFTFSKTSSTTVDLKMTSPTTEDTATYFCARSTTDAQFNIWGPGTLVTVSS VL: AAVLTQTPSPVSAAVGGTVSISCQSSENVYTDNQLCWYQQKPGQRPKLLIYDASTLASGVPSRFSGSGSGTQFTLTISGVQSDDAATYYCAGGYSTTSDTTFGGGTEVVVK .
9.2

Which EC50 value is on record for MAB-19-0223 (antibody, human IgG1, V domains shown, Chimeric rabbit/human antibody, human IgG1 constant parts with L234A and L235A (LALA); also called chimeric anti-PD-1 MAB-19-0223) VH: QEHLVESGGGLVQPEGSLTLTCKASGIDFSDTYWICWVRQPPGKGLEWIGCIGIGGSGSTYYAGWAKGRFTISKTSSTTVTLQMTTLTDADTATYFCATEIPYFNVWGPGTLVTVSS VL: AQVLTQTPSSVSAAVGGTVTINCQSSQSVYNKNWLAWYQQKPGQPPKLLIYDASKLTSGVPSRFKGSGSGTQFTLTISGVQSDDAATYYCQGTYDVNGWLVAFGGGAEVVVK ?
6.6

GET /values?readout=EC50&item= MAB-19-0233 (antibody, human IgG1, V domains shown, Chimeric rabbit/human antibody, human IgG1 constant parts with L234A and L235A (LALA)) VH: QSLEESGGDLVKPGASLTLTCKASGIDFSSVYYMCWVRQAPGKGLEWIACIYVGSSGVSYYATWAKGRFTISKTSSTTVTLQMTSLTAADTATYFCARAGYVGAVYVTLTRLDLWGQGTLVTVSS VL: AAVLTQTPSPVSAAVGGTVTISCQSSQSIYTNNDLAWYQQKPGQPPKLLIYDASKLASGVPSRFSGSGSGTQFTLTISGVQSDDAATYYCLGGYDDDADNAFGGGTEVVVK
6.3
